Reference for the values: patent US8017611B2

molecular target: recombinant Axl tyrosine kinase (Homo sapiens, UniProt P30530); construct: encompassing amino acids 473 to 894 of Axl; GST (N); made in house; host or cells: SF126 insect cells; assay: In vitro Axl kinase assay (AlphaScreen), Test (a); format: biochemical; conditions: test compound at 1 μM; first value quoted; read-out: % Axl tyrosine kinase inhibition at 1 μM concentration
observation.type: inhibition at 1 µM (%)

>>> df
                                    compound  assay_value
 0  CNC(=O)CN1CCC(n2cc(-c3cnc(N)c(-c4nc5ccccc5o4)c3)c(COC)n2)CC1          100
 1  Nc1ncc(-c2cnn(C3CCNCC3)c2)nc1-c1nc2ccccc2o1         99.6
 2  COc1ccc2oc(-c3cc(-c4cnn(C5CCN(C)CC5)c4)cnc3N)nc2c1 [Example 35A]          100
 3  CC(O)c1nn(C2CCNCC2)cc1-c1cnc(N)c(-c2nc3ccccc3o2)c1 (stereo not drawn)         99.8
 4    Nc1ncc(-c2cnn(CCO)c2)cc1-c1nc2ccccc2o1         99.3
 5  Cc1c(-c2cnc(N)c(-c3nc4ccccc4o3)c2)cnn1C1CCNCC1          100
 6  CN(C)CCNC(=O)c1ccc(-c2cnc(N)c(-c3nc4ncccc4o3)c2)cc1 [Example 10A.15]         98.4
 7  CNCc1nn(C2CCN(C(C)=O)CC2)cc1-c1cnc(N)c(-c2nc3ccccc3o2)c1         98.4
 8  CNC(=O)[C@@H]1C[C@@H](n2cc(-c3cnc(N)c(-c4nc5ccccc5o4)c3)cn2)CN1         99.9
 9  COCc1nn(C2CCNCC2)cc1-c1cnc(N)c(-c2nc3ccccc3o2)c1          100
10  COc1cc(-c2cnc(N)c(-c3nc4ncccc4o3)c2)ccc1OCCN1CCOCC1 [Example 43C.2]         97.1
11  Nc1ncc(-c2cnn(C3CCNCC3)c2)cc1-c1nc2ncc(F)cc2o1         98.4
12  Nc1ncc(-c2cnn(C3CCNCC3)c2)cc1-c1nc2cccnc2o1         98.8
13  CN(C)CC(=O)N1CCC(n2cc(-c3cnc(N)c(-c4nc5ncccc5o4)c3)cn2)CC1         99.5
14  Nc1ncc(-c2ccc(OCCCN3CCCC3)cc2)cc1-c1nc2cccnc2o1         99.7
15  CCNS(=O)(=O)c1cccc(-c2cnc(N)c(-c3nc4ccccc4o3)c2)c1         93.5
16  Nc1ncc(-c2cnn(C3CCNCC3)c2)cc1-c1nc2cnccc2o1         99.2
17  COc1ccc2nc(-c3cc(-c4cnn(C5CCN(C)CC5)c4)cnc3N)oc2c1         99.6

====

Biological target: recombinant Axl tyrosine kinase (Homo sapiens, UniProt P30530)
Construct: encompassing amino acids 473 to 894 of Axl; GST (N); made in house; host or cells: SF126 insect cells
Sequence (P30530 473-894): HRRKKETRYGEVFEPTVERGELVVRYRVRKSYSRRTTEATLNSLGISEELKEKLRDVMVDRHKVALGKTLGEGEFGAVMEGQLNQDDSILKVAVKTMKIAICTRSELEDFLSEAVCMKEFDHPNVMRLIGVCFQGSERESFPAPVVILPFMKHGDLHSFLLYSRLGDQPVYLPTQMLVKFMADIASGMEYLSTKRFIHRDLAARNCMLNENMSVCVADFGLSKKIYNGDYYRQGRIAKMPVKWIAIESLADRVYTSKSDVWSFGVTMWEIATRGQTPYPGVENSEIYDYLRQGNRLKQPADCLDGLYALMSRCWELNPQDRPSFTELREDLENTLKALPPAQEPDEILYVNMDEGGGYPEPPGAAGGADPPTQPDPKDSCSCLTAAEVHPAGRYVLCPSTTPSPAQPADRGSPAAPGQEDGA
Experiment: In vitro Axl kinase assay (AlphaScreen), Test (a)
Assay type: biochemical
Details: test compound at 1 μM; first value quoted
observation.type: % Axl tyrosine kinase inhibition at 1 μM concentration (%)

>>> df
                                   compound  assay_value
0  CN1CCCC1CCNC(=O)c1ccc(-c2cnc(N)c(-c3nc4cccnc4o3)c2)cc1 (centres unmarked) [Example 45A.5]         98.8
1  CN1CCN(CCOc2ccc(-c3cnc(N)c(-c4nc5ncccc5o4)c3)cc2)CC1 [Example 43B.7]         98.1
2  COc1cc(-c2cnc(N)c(-c3nc4ncccc4o3)c2)ccc1OCCCCN [Example 43C.30]         99.0
3  Nc1ncc(-c2ccc(C(=O)N3CCC(N)C3)cc2)cc1-c1nc2cccnc2o1 (centres unmarked) [Example 45A.79]         99.0
4  Nc1ncc(-c2cccc(N3CCOCC3)c2)cc1-c1nc2ccccc2o1 [Example 2.49]         93.6
5  NCc1ccc(-c2cnc(N)c(-c3nc4cccnc4o3)c2)cc1 [Example 9A.13]         98.3
6  CN1CCN(CCCNC(=O)c2ccc(-c3cnc(N)c(-c4nc5cccnc5o4)c3)cc2)CC1 [Example 45A.58]         97.0
7  CN1CCCC1CCOc1ccc(-c2cnc(N)c(-c3nc4ncccc4o3)c2)cc1 (centres unmarked) [Example 43B.17]         99.5

====

target: Axl expressed on NCI H1299 lung large cell carcinoma cells (Homo sapiens, UniProt P30530); experiment: Cellular phospho-Axl ELISA assay, Test (b); details: read-out: IC50 versus cellular phospho-Axl, mean recalculated from a larger number of replicates; Test (b); later recalculated
observation.type: IC50 (nM)
Your answer should be a plain number; it is taken to be in nM.

Report IC50 for CN1CCC(n2cc(-c3cnc(N)c(-c4nc5ccc(F)cc5o4)c3)cn2)CC1 please.
111

====

target: recombinant Axl tyrosine kinase (Homo sapiens); construct: encompassing amino acids 473 to 894 of Axl; GST (N); made in house; host or cells: SF126 insect cells; assay: In vitro Axl kinase assay (AlphaScreen), Test (a); format: biochemical; conditions: test compound at 1 μM; first value quoted
observation.type: % Axl tyrosine kinase inhibition at 1 μM concentration (%)

As a guide, the following entries are already answered.
In [3]: df
Out[3]:
                                   compound  assay_value
0  CN1CCC(n2cc(-c3cnc(N)c(-c4nc5cc(Br)ccc5o4)c3)cn2)CC1         99.1
1  CN(C)CCn1cc(-c2cnc(N)c(-c3nc4ccccc4o3)c2)cn1         98.4
2  CN1CCN(CCCn2cc(-c3cnc(N)c(-c4nc5ccccc5o4)c3)cn2)CC1        100.0
3  COC(=O)N1CCC(n2cc(-c3cnc(N)c(-c4nc5ncccc5o4)c3)cn2)CC1         99.5
4  CN1CCC(n2cc(-c3cnc(N)c(-c4nc5ccc(OC(F)(F)F)cc5o4)c3)cn2)CC1         95.7

[A] N#CCc1ccc(-c2cnc(N)c(-c3nc4ccccc4o3)n2)cc1
[B] Nc1ncc(-c2ccc3[nH]ccc3c2)cc1-c1nc2ccccc2o1
In the pair A and B , the larger recorded % Axl tyrosine kinase inhibition at 1 μM concentration belongs to which? // output: label of the selected item
A
(A: 98.3%, B: 31.3%)

====

Molecular target: recombinant Axl tyrosine kinase (Homo sapiens)
Construct: encompassing amino acids 473 to 894 of Axl; GST (N); made in house; host or cells: SF126 insect cells
Sequence (P30530 473-894): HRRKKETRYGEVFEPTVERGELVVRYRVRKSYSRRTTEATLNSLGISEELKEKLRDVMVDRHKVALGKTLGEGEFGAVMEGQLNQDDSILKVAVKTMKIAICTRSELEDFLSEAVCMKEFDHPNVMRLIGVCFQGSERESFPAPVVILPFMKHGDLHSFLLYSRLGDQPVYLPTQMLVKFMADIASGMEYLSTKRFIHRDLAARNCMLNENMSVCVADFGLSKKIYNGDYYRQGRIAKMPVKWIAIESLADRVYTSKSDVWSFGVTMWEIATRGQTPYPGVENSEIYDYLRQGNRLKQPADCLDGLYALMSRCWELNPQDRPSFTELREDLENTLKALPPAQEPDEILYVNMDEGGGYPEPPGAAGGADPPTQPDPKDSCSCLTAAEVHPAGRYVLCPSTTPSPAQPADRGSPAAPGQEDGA
Experiment: In vitro Axl kinase assay (AlphaScreen), Test (a)
Format: biochemical
Settings: test compound at 1 μM; first value quoted
Procedure: Test compounds were prepared as 10 mM stock solutions in dimethylsulphoxide (DMSO) and diluted in DMSO as required. Aliquots (120 nl) of compound dilutions were filled into the wells of a Greiner 384-well low volume (LV) white polystyrene plate (Greiner Bio-one) using acoustic dispensing (Labcyte Echo 550). […]
observation.type: % Axl tyrosine kinase inhibition at 1 μM concentration (%)

As a guide, the following entries are already answered.
                                   compound                     target_or_test_system  unit_abbrev  assay_value
0  COc1cccc2nc(-c3cc(-c4cnn(C5CCNCC5)c4)cnc3N)oc12  recombinant Axl tyrosine kinase (Homo sapiens)            %        100.0
1  CCN(CC)CCCOc1ccc(-c2cnc(N)c(-c3nc4ncccc4o3)c2)cc1 [Example 43B.20]  recombinant Axl tyrosine kinase (Homo sapiens)            %         98.9
2  Nc1ncc(-c2cccc(C(=O)NC3CC3)c2)cc1-c1nc2ncccc2o1 [Example 10A.6]  recombinant Axl tyrosine kinase (Homo sapiens)            %         37.8
3  CNCCCOc1ccc(-c2cnc(N)c(-c3nc4ncccc4o3)c2)cc1OC [Example 43C.28]  recombinant Axl tyrosine kinase (Homo sapiens)            %         51.0
4  Nc1ncc(-c2ccc(C(=O)N3CC(N)C3)cc2)cc1-c1nc2cccnc2o1 [Example 45A.105]  recombinant Axl tyrosine kinase (Homo sapiens)            %         98.4

[1] COc1cccc2nc(-c3cc(-c4cn(C5CCNCC5)nc4C)cnc3N)oc12
[2] CN1CCN(c2ncc(-c3cnc(N)c(-c4nc5cccnc5o4)c3)s2)CC1
Compare % Axl tyrosine kinase inhibition at 1 μM concentration: is it lower for 1 or for 2 ? // output: label of the selected item
2
(2: 38.2%, 1: 100.0%)
